# Test system: OVCAR8
# ASSAY INFO: drug sensitivity score (DSS2) on cancer cell count; higher = more sensitive; extreme values may be limits of the assay
# STATED CONDITIONS: co-cultured fibroblast: BJHTERT; 72 h
Listed next: entries and their corresponding drug sensitivity score.
Quick note: give the figure in DSS, leave out the unit.

[[record]]
molecule = "Nc1nc2[nH]cc(CCc3ccc(C(=O)N[C@@H](CCC(=O)O)C(=O)O)cc3)c2c(=O)[nH]1 [Pemetrexed]"
observed_property = "drug sensitivity score"
measured_number = 16.4

[[record]]
molecule = "O=C(Nc1cccc(Nc2ncc(Br)c(NCCc3cnc[nH]3)n2)c1)N1CCCC1 [BX-912]"
observed_property = "drug sensitivity score"
measured_number = 9.1

[[record]]
molecule = "COc1cc2c(Nc3ccc(Cl)c(Cl)c3F)ncnc2cc1OC[C@@H]1C[C@@H]2CN(C)C[C@@H]2C1 [Tesevatinib]"
observed_property = "drug sensitivity score"
measured_number = 3.3

[[record]]
molecule = "CN1CCN(C2CCC(n3cc(-c4ccc(Oc5ccccc5)cc4)c4c(N)ncnc43)CC2)CC1 (centres undefined)"
observed_property = "drug sensitivity score"
measured_number = 12.9

[[record]]
molecule = "O=C(NCc1ccncc1)C12CC3CC(C1)CC(c1ccc(Cl)cc1)(C3)C2"
observed_property = "drug sensitivity score"
measured_number = 3.9

[[record]]
molecule = "CC1(C)NC(=O)N(c2ccc([N+](=O)[O-])c(C(F)(F)F)c2)C1=O [Nilutamide]"
observed_property = "drug sensitivity score"
measured_number = 0

[[record]]
molecule = "CC(C)NC[C@@H](C(=O)N1CCN(c2ncnc3c2[C@H](C)C[C@H]3O)CC1)c1ccc(Cl)cc1 [Ipatasertib]"
observed_property = "drug sensitivity score"
measured_number = 1.9

[[record]]
molecule = "COc1cc(OC)c(/C=C/S(=O)(=O)Cc2ccc(OC)c(NCC(=O)O)c2)c(OC)c1 [Rigosertib]"
observed_property = "drug sensitivity score"
measured_number = 27.7

[[record]]
molecule = "CCC/C=C/C=C/C(=O)O[C@H]1/C(=C/C(=O)OC)C[C@H]2C[C@H]([C@@H](C)O)OC(=O)C[C@H](O)C[C@@H]3C[C@H](OC(C)=O)C(C)(C)[C@](O)(C[C@@H]4C/C(=C/C(=O)OC)C[C@H](/C=C/C(C)(C)[C@]1(O)O2)O4)O3 [Bryostatin 1]"
observed_property = "drug sensitivity score"
measured_number = 2.9

[[record]]
molecule = "FC(F)c1nc2ccccc2n1-c1nc(N2CCOCC2)nc(N2CCOCC2)n1 [ZSTK474]"
observed_property = "drug sensitivity score"
measured_number = 5.3


Now for another entry.
# molecule C[C@H]1O[C@@H](O[C@H]2[C@@H](O)C[C@H](O[C@H]3[C@@H](O)C[C@H](O[C@H]4CC[C@@]5(C)[C@H](CC[C@@H]6[C@@H]5C[C@@H](O)[C@]5(C)[C@@H](C7=CC(=O)OC7)CC[C@]65O)C4)O[C@@H]3C)O[C@@H]2C)C[C@H](O)[C@@H]1O [Digoxin] ; its drug sensitivity score = 14.9

----------
# Test system: KURAMOCHI
# ASSAY INFO: drug sensitivity score (DSS2) on cancer cell count; higher = more sensitive; extreme values may be limits of the assay
# STATED CONDITIONS: co-cultured fibroblast: BJHTERT; 72 h
Label Yes when drug sensitivity score >= 3 DSS; otherwise No.

Past entries and their recorded results:
[[record]]
input_smiles = "CCc1c2c(nc3ccc(O)cc13)-c1cc3c(c(=O)n1C2)COC(=O)[C@]3(O)CC"
assigned_class = "Yes"

[[record]]
input_smiles = "Cn1cc(-c2ccc(F)c(C(F)(F)F)c2)nc1C1CCN(c2ncnc3[nH]ncc23)CC1"
assigned_class = "No"

[[record]]
input_smiles = "Cc1cccc(-c2nn3c(c2-c2ccnc4ccc(C(N)=O)cc24)CCC3)n1"
assigned_class = "Yes"

[[record]]
input_smiles = "COc1cc2nccc(Oc3ccc(NC(=O)NC4CC4)c(Cl)c3)c2cc1C(N)=O"
assigned_class = "No"

[[record]]
input_smiles = "Nc1cc(F)ccc1NC(=O)c1ccc(CNC(=O)/C=C/c2cccnc2)cc1"
assigned_class = "Yes"


// inclusive: drug sensitivity score at least 3 DSS? input: COc1cc(C)[nH]c(=O)c1CNC(=O)c1c(C)n([C@H](C)C2CCOCC2)c2ccccc12
No

Textbook exercise: given the entry NCCNc1ccc(NCCN)c2c1C(=O)c1ccncc1C2=O , state whether its drug sensitivity score is greater than or equal to 3 DSS.
No

drug sensitivity score >= 3 DSS for C=CC(=O)N1CC/C(=C\c2ccc(F)c([N+](=O)[O-])c2)C(=O)/C(=C/c2ccc(F)c([N+](=O)[O-])c2)C1 ?
Yes

----------
# System: KURAMOCHI
# ASSAY INFO: drug sensitivity score (DSS2) on cancer cell count; higher = more sensitive; extreme values may be limits of the assay
# STATED CONDITIONS: co-cultured fibroblast: WI38; 72 h
Measured drug sensitivity score values are reported for all entries that follow.

These recorded examples may help you get a feel for the data.
[[record]]
compound = "Cc1ccc(C(=O)N(CCCN)[C@@H](c2oc3cc(Cl)ccc3c(=O)c2Cc2ccccc2)C(C)C)cc1"
observed_property = "drug sensitivity score"
result = "17.2 DSS"

[[record]]
compound = "Cc1ccc(C(=O)Nc2cccc(C(F)(F)F)c2)cc1Nc1nc(-c2cccnc2)nc2c1cnn2C"
observed_property = "drug sensitivity score"
result = "6.7 DSS"

[[record]]
compound = "CNS(=O)(=O)Nc1nccc(Cc2c(C)c3ccc(Oc4ncccn4)cc3oc2=O)c1F"
observed_property = "drug sensitivity score"
result = "0 DSS"

[[record]]
compound = "CC(C)C(=O)Nc1ccc([N+](=O)[O-])c(C(F)(F)F)c1 [Flutamide]"
observed_property = "drug sensitivity score"
result = "1.3 DSS"

[[record]]
compound = "CC(C)Cn1cnc2c(N)nc3ccccc3c21"
observed_property = "drug sensitivity score"
result = "0.1 DSS"


Kindly note the recorded drug sensitivity score for COc1cc2/c(=N/c3ccc(Br)cc3F)nc[nH]c2cc1OCC1CCN(C)CC1 , which is 2.6 DSS

Quick note, drug sensitivity score for Cc1cn(-c2cc(NC(=O)c3ccc(C)c(Nc4nccc(-c5cnccn5)n4)c3)cc(C(F)(F)F)c2)cn1 landed at 0 DSS

response.value for CCc1c2c(nc3ccc(O)cc13)-c1cc3c(c(=O)n1C2)COC(=O)[C@]3(O)CC (field: drug sensitivity score) = 39.5 DSS

# drug sensitivity score of CCNC(=O)c1noc(-c2cc(C(C)C)c(O)cc2O)c1-c1ccc(CN2CCOCC2)cc1 = 20.9 DSS

compound CC/C(=C(\c1ccc(O)cc1)c1ccc(OCCN(C)C)cc1)c1ccccc1 [4-hydroxytamoxifen] , drug sensitivity score observed: 1.8 DSS

drug sensitivity score reported for this compound O=C(O)c1ccc2c(c1)nc(Nc1cccc(Cl)c1)c1ccncc12 : 3.4 DSS

Recorded result, Nc1nc2[nH]cnc2c(=S)[nH]1 , drug sensitivity score: 5.7 DSS

----------
# Test system: KURAMOCHI
# ASSAY INFO: drug sensitivity score (DSS2) on cancer cell count; higher = more sensitive; extreme values may be limits of the assay
# STATED CONDITIONS: co-cultured fibroblast: WI38; 72 h
OBSERVED PROPERTY: drug sensitivity score (DSS)
A number alone suffices; assume DSS.

These recorded examples may help you get a feel for the data.
[[record]]
molecule = "NC(=O)N1CCC(CC(=O)N2CCC([C@H]3c4ncc(Br)cc4CCc4cc(Cl)cc(Br)c43)CC2)CC1 [Lonafarnib]"
unit_name = "DSS"
measured_number = 13.9

[[record]]
molecule = "Cc1cc(Nc2ncnc3ccc(NC4=NC(C)(C)CO4)cc23)ccc1Oc1ccn2ncnc2c1 [Tucatinib]"
unit_name = "DSS"
measured_number = 0


Entry C=CC(=O)N1CCC(Oc2cc3c(Nc4ccc(Cl)c(Cl)c4F)ncnc3cc2OC)CC1 [Poziotinib] — recorded drug sensitivity score = 7.9

drug sensitivity score measured on Cc1c(N)nc([C@H](CC(N)=O)NC[C@H](N)C(N)=O)nc1C(=O)N[C@H](C(=O)N[C@H](C)[C@@H](O)[C@H](C)C(=O)N[C@H](C(=O)NCCc1nc(-c2nc(C(=O)NCCC[S+](C)C)cs2)cs1)[C@@H](C)O)[C@@H](OC1OC(CO)C(O)C(O)C1OC1OC(CO)C(O)C(OC(N)=O)C1O)c1cnc[nH]1 (stereo partly specified) [Bleomycin] = 15.4

response.value for C[C@H]1Oc2cc(cnc2N)-c2c(nn(C)c2C#N)CN(C)C(=O)c2ccc(F)cc21 (field: drug sensitivity score) = 0

The molecule listed as Nc1nc2[nH]cc(CCc3ccc(C(=O)N[C@@H](CCC(=O)O)C(=O)O)cc3)c2c(=O)[nH]1 [Pemetrexed] has a reported drug sensitivity score of 16

----------
# System: KURAMOCHI
# ASSAY INFO: drug sensitivity score (DSS2) on cancer cell count; higher = more sensitive; extreme values may be limits of the assay
# STATED CONDITIONS: co-cultured fibroblast: WI38; 72 h
Listed here: items and their measured drug sensitivity score.
Write down the numeric answer in DSS and omit the unit.

Below are worked cases with known answers.
[[record]]
molecule = "CCCC(CCC)C(=O)O [Valproic acid]"
measured_number = 0

[[record]]
molecule = "CC1(C)CCC(CN2CCN(c3ccc(C(=O)NS(=O)(=O)c4ccc(NCC5CCOCC5)c([N+](=O)[O-])c4)c(Oc4cnc5[nH]ccc5c4)c3)CC2)=C(c2ccc(Cl)cc2)C1 [Venetoclax]"
measured_number = 0


Record summary for C[C@@H]1CCN(C(=O)CC#N)C[C@@H]1N(C)c1ncnc2[nH]ccc12 [Tofacitinib] : reported drug sensitivity score = 0

Measured drug sensitivity score of C=CC[C@@H]1/C=C(\C)C[C@H](C)C[C@H](OC)[C@H]2O[C@@](O)(C(=O)C(=O)N3CCCC[C@H]3C(=O)O[C@H](/C(C)=C/[C@@H]3CC[C@@H](O)[C@H](OC)C3)[C@H](C)[C@@H](O)CC1=O)[C@H](C)C[C@@H]2OC [Tacrolimus] : 1

Recorded result, CCn1cc(-c2ccnc3[nH]c(-c4cccc(CN(C)C)c4)cc23)c(-c2ccc(NC(=O)N(C)C)cc2)n1 , drug sensitivity score: 15.5

Summary for this molecule, COC(=O)N[C@@H](C)CNc1nccc(-c2cn(C(C)C)nc2-c2cc(Cl)cc(NS(C)(=O)=O)c2F)n1 [Encorafenib] : drug sensitivity score is 0

CN1CCc2c(c3ccccc3n2Cc2ccc(C(=O)NO)cc2)C1 [Tubastatin A] has a reported drug sensitivity score of 3.3
